tgt: Bcl-2 protein (Recombinant Human Bcl-2 Protein) (Homo sapiens)
Construct: purchased Novus NBP2-34889
Sequence (P10415 whole entry): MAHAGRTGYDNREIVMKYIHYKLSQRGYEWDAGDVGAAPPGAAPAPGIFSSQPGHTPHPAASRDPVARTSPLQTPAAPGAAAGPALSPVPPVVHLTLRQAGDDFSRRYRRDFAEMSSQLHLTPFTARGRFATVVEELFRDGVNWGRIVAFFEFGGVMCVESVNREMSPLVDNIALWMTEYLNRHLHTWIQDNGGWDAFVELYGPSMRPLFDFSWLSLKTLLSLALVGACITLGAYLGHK
test_details: Binding evaluation of mixture library compounds to Bcl-2 using AS-MS (affinity selection mass spectrometry)
applied_conditions: AS-MS on the mixture of 1200 library compounds; ASMS Ratio(%)=(A−C)/B×100; replicate n = 2

- structure_string: "CCOc1cncc(-c2ccc(C(=O)N3CCN(c4ccc(C(=O)Nc5ccc(OC)cc5)cc4)CC3)c3ccccc23)c1"
  ASMS ratio (%) n = 2: 0.9
- structure_string: "CCOc1cncc(-c2cc(C(=O)N3CCN(c4ccc(C(=O)N(C)CC56CC7CC(CC(C7)C5)C6)cc4)CC3)cc(C(C)(C)C)c2)c1"
  ASMS ratio (%) n = 2: "−2.9"
- structure_string: "CCOc1cncc(-c2cc(OC)c(CN3CCN(c4ccc(C(=O)N(C)CC56CC7CC(CC(C7)C5)C6)cc4)CC3)c(OC)c2)c1"
  ASMS ratio (%) n = 2: 0.0
